tested on: HEK-293T; assay: Multiplex assay against HEK293T; assay type: toxicity, cell-based; conditions: human, 24 h, 10 µM, compound concentration 10 uM, replicate 2
Value kind: Population Tubulin-Different-Phenotype (%)
The reply should be a number in %, with the unit left off.

Here is how some compounds turned out for Population Tubulin-Different-Phenotype (%).
CC(C)c1noc(N2CCC(COc3ccc(-c4ccc(S(C)(=O)=O)cc4)nc3)CC2)n1 [GSK-1292263]
28
C[C@H](N)COC(=O)[C@@H](CCCCN)NC(=O)Cc1c(-c2ccc3ccccc3c2)[nH]c2c1ccc1ccccc12
42
CN[C@@H](C)C(=O)N[C@H](C(=O)N1CCC[C@H]1C(=O)Nc1snnc1-c1ccccc1)C1CCCCC1 [GDC-0152]
58
Cl.N=C(N)NC(=O)Cc1c(Cl)cccc1Cl [GUANFACINE HYDROCHLORIDE]
27

Ask | Would you mind telling me what Population Tubulin-Different-Phenotype (%) value was observed for O=C(NCCN1CCC(n2c(=O)[nH]c3cc(Cl)ccc32)CC1)c1ccc(F)cc1 [HALOPEMIDE] ?
Reply | 62

Ask | Query (compound): "COc1cccc2c1c(NS(=O)(=O)c1ccc(Cl)s1)nn2Cc1cccc(CNC(=O)C(C)(C)O)c1" ; field requested: Population Tubulin-Different-Phenotype (%)
Reply | 22

Ask | Given CC[C@@H](C)Nc1nc(C)nc2c(-c3ccc(OC)nc3C)c(C)nn12 [PEXACERFONT] , state its recorded Population Tubulin-Different-Phenotype (%).
Reply | 48

Ask | Fill blank: measured Population Tubulin-Different-Phenotype (%) of the compound COC[C@@H](c1ccc(C(F)(F)F)cc1)N1CCN(C2(C)CCN(C(=O)c3c(C)ncnc3C)CC2)C[C@@H]1C.O=C(O)/C=C\C(=O)O [VICRIVIROC MALEATE] is ____.
Reply | 39

Ask | Look up Population Tubulin-Different-Phenotype (%) for this compound: "CC(/C=C1\SC(=S)N(CCCC(=O)Nc2ccc(C(=O)O)c(O)c2)C1=O)=C\c1ccccc1"
Reply | 20

* * *

test system: Fibroblast; experiment: Multiplex assay against human fibroblast; format: toxicity, cell-based; conditions: 48 h, 1 µM, compound concentration 1 uM, replicate 2
Mark Y for Population Fragmented Nuclei (%) under 40%, N if at or over.

Ask | I wonder whether "CC(C)(C)c1cc(NC(=O)Nc2ccc(-c3cn4c(n3)sc3cc(OCCN5CCOCC5)ccc34)cc2)no1" has Population Fragmented Nuclei (%) below 40%. Can you tell?
Reply | Y

* * *

// reported Population Pyknosed Nuclei (%) per item
test system: HEK-293T; assay: Multiplex assay against HEK293T; format: toxicity, cell-based; conditions: human, 12 h, 10 µM, compound concentration 10 uM, replicate 2
Please give a number only; it is taken to be in %.

Ask | Find the measured Population Pyknosed Nuclei (%): item "CC(C)c1noc(N2CCC(COc3ccc(-c4ccc(S(C)(=O)=O)cc4)nc3)CC2)n1" , target or system HEK-293T.
Reply | 13

Ask | Observed Population Pyknosed Nuclei (%) on HEK-293T for Cl.NCCc1ccc(O)c(O)c1 [DOPAMINE HYDROCHLORIDE] , please.
Reply | 11

* * *

test system: HEK-293T; experiment: Multiplex assay against HEK293T; format: toxicity, cell-based; conditions: human, 24 h, 1 µM, compound concentration 1 uM, replicate 2
Listed next: entries and their corresponding Population Fragmented Nuclei (%).
Report only the number, with the unit % understood.

Worked cases, answers included:
CN(C)C(=O)Cn1cc(-c2ccc(-c3cncc4ccccc34)cc2)cn1
6
Cc1onc(-c2ccccc2Cl)c1C(=O)N(C)c1ccc(Cl)cc1
5
N#Cc1cc(F)cc(-c2nc(-c3ccc(F)cn3)no2)c1
7
CC(C)COc1ccc(CNC(=O)N(Cc2ccc(F)cc2)C2CCN(C)CC2)cc1 [PIMAVANSERIN]
4
Cc1cccc(NC(=O)CN2CCC(c3ccccn3)CC2)c1.Cl.Cl
10

Ask | Find the recorded Population Fragmented Nuclei (%) belonging to "Cc1cnc(-c2cc(N3CCN(C(=O)CCS(C)(=O)=O)CC3)ncc2Cl)c(C)c1" and report it.
Reply | 7

Ask | Give the measured Population Fragmented Nuclei (%) of CCCCCC(O)/C=C/[C@H]1C(=O)CC(O)C1C/C=C\CCCC(=O)O (some centres undefined) .
Reply | 7

Ask | I would be grateful if you could share the reported Population Fragmented Nuclei (%) for Cl.N=C(N)NC(=O)Cc1c(Cl)cccc1Cl [GUANFACINE HYDROCHLORIDE] .
Reply | 4

Ask | Data request, read-out Population Fragmented Nuclei (%), for "CCCOc1ccc2[nH]cc(C3=CCNCC3)c2n1.Cl"
Reply | 9

meta.source: ChEMBL document CHEMBL5058577
